Measured pEC50 by item
- Tested on: IL-6 (THP-1 cells)
- PROTOCOL_NOTES: Inhibition of IL-6 in LPS-stimulated THP-1 monocytes (HTRF)
- Type: cell-based
- CONDITION: Homo sapiens, LPS 500 ng/mL, IL-6 by HTRF
pEC50: −log10 of the molar value.

Take a look at these entries with their results.
CN(C)CCNc1cc(F)cc(-c2ccnc3[nH]c(-c4n[nH]c5ccc(-c6cnccn6)nc45)nc23)c1 ... < 5.00
c1cc(-c2ccc3[nH]nc(-c4nc5c(-c6ccncc6)ccnc5[nH]4)c3n2)ccn1 ... < 5.00
O=C(Cc1ccccc1)Nc1cncc(-c2ccc3[nH]nc(-c4nc5c(-c6ccncc6)ccnc5[nH]4)c3n2)c1 ... < 5.00
COc1cccc(-c2ccnc3[nH]c(-c4n[nH]c5ccc(-c6cccnc6)nc45)nc23)c1 ... < 5.00
COc1cccc(-c2ccnc3[nH]c(-c4n[nH]c5ccc(-c6cncc(NC(=O)Cc7ccccc7)c6)nc45)nc23)c1 ... < 5.00

Can you share its pEC50? I mean this molecule: `CN(C)Cc1cncc(-c2ccc3[nH]nc(-c4nc5c(N6CCCCC6)ccnc5[nH]4)c3n2)c1`
5.08

Query (molecule): `CCCC(=O)Nc1cncc(-c2ccc3[nH]nc(-c4nc5c(-c6ccsc6)ccnc5[nH]4)c3n2)c1` ; field requested: pEC50
5.00

Given `Fc1cccc(-c2ccnc3[nH]c(-c4n[nH]c5ccc(-c6cncc(CN7CCC(F)(F)C7)c6)nc45)nc23)c1` , state its recorded pEC50.
6.01

---

This section presents compounds with their documented EC50 values.
- Tested on: primary human fibroblasts derived from IPF patients (LL29 cells), α-smooth muscle actin (αSMA)
- PROTOCOL_NOTES: Inhibition of the fibrotic process: TGF-β1-treated primary human fibroblasts from IPF patients, αSMA staining
- Format: cell-based
- CONDITION: Fibroblast, 96 h, LL29 fibroblasts from IPF patients, TGF-β1 20 ng/mL, 4 days, inhibition of fibrotic process
Write it as a number; the unit µM goes unstated.

CC(C)C(=O)Nc1cncc(-c2ccc3[nH]nc(-c4nc5c(N6CCN(C)CC6)ccnc5[nH]4)c3n2)c1 [Compound 233] ... 4.84
c1cc(N2CCCCC2)c2nc(-c3n[nH]c4ccc(-c5cncc(OCCN6CCCC6)c5)nc34)[nH]c2n1 [Compound 610] ... 2.27
COc1cccc(-c2ccnc3[nH]c(-c4n[nH]c5ccc(-c6cncc(NC(=O)CC(C)(C)C)c6)nc45)nc23)c1 [Compound 1006] ... 2.49

# ---- query compound ----
For CN(C)c1cncc(-c2ccc3[nH]nc(-c4nc5c(N6CCCCC6)ccnc5[nH]4)c3n2)c1 [Compound 175] , what is its reported EC50?
2.53

---

- Tested on: primary human mesenchymal stem cells (hMSCs)
- PROTOCOL_NOTES: Induction of chondrogenesis in primary human mesenchymal stem cells (nodule imaging, Rhodamine B/Nile Red)
- Type: cell-based
- CONDITION: hMSC chondrogenesis, TGF-β3 as positive control, read-out: Max. Activity as % TGF-β3 activity
QUANTITY_KIND: Emax (%)
Please state the figure in %; there is no need to write the unit.

Cc1cn(-c2ccnc3[nH]c(-c4n[nH]c5ccc(-c6cncc(CN7CCCC7)c6)nc45)nc23)cn1 [Compound 210] ... 49

Form field: reported Emax of Clc1ccc(-c2ccnc3[nH]c(-c4n[nH]c5ccc(-c6cncc(CN7CCCC7)c6)nc45)nc23)s1 [Compound 1049]
74

Quick check: Emax of O=C(Nc1cncc(-c2ccc3[nH]nc(-c4nc5c(-c6ccc(Cl)s6)ccnc5[nH]4)c3n2)c1)C1CCC1 [Compound 1056] ?
102

Data request, read-out Emax, for Cc1ncc(-c2ccc3[nH]nc(-c4nc5c(-c6cccc(F)c6)ccnc5[nH]4)c3n2)n1C [Compound 509]
97

Value lookup for Emax; key = CCCC(=O)Nc1cncc(-c2ccc3[nH]nc(-c4nc5c(-c6ccncc6)ccnc5[nH]4)c3n2)c1 [Compound 129]
50

Quick one: Emax of Cc1cn(-c2ccnc3[nH]c(-c4n[nH]c5ccc(-c6cncc(NC(=O)CC(C)C)c6)nc45)nc23)cn1 [Compound 198] ?
27

Which value of Emax has been reported for COc1cccc(-c2ccnc3[nH]c(-c4n[nH]c5ccc(-c6cncc(NC(=O)Cc7ccccc7)c6)nc45)nc23)c1 [Compound 1000] in the records?
46

Using the record for CC(C)C(=O)Nc1cncc(-c2ccc3[nH]nc(-c4nc5c(N6CCN(C)CC6)ccnc5[nH]4)c3n2)c1 [Compound 233] , report its Emax.
62

---

- Test system: Wnt activity (Sp5-Luc reporter, SW480 colon carcinoma cells)
- PROTOCOL_NOTES: Screening assay for Wnt activity: Sp5-Luc reporter gene assay in SW480 cells
- Type: cell-based
- CONDITION: Homo sapiens, overnight incubation, 10-point dose-response from 10 μM
QUANTITY_KIND: EC50 (nM)
Give just the number in nM; leave the unit off.

Cc1ncc(-c2ccc3[nH]nc(-c4nc5c(-c6cccc(F)c6)ccnc5[nH]4)c3n2)n1C ... 120
Fc1ccccc1-c1ccnc2[nH]c(-c3n[nH]c4ccc(-c5cncc(CNCC6CCCC6)c5)nc34)nc12 ... 1120

Next compound, EC50 to be filled in.
Which EC50 is listed for `Cc1ccncc1-c1ccc2[nH]nc(-c3nc4c(-c5ccsc5)ccnc4[nH]3)c2n1` ?
865

---

- Test system: Wnt activity (Sp5-Luc reporter, SW480 colon carcinoma cells)
- PROTOCOL_NOTES: Screening assay for Wnt activity: Sp5-Luc reporter gene assay in SW480 cells
- Format: cell-based
- CONDITION: Homo sapiens, overnight incubation, 10-point dose-response from 10 μM
QUANTITY_KIND: pEC50
For clarity, pEC50 is expressed as the negative log10 of concentration in mol/L.

O=C(Nc1cncc(-c2ccc3[nH]nc(-c4nc5c(-c6ccc(Cl)s6)ccnc5[nH]4)c3n2)c1)C1CCC1 ... 6.45
Oc1cncc(-c2ccc3[nH]nc(-c4nc5c(N6CCCCC6)ccnc5[nH]4)c3n2)c1 ... 5.48
FC1(F)CCN(Cc2cncc(-c3ccc4[nH]nc(-c5nc6c(N7CCCCC7)ccnc6[nH]5)c4n3)c2)C1 ... 5.38
Cc1ccc(-c2ccnc3[nH]c(-c4n[nH]c5ccc(-c6cncc(N)c6)nc45)nc23)s1 ... 7.33
c1cncc(-c2ccc3[nH]nc(-c4nc5c(-c6cccnc6)ccnc5[nH]4)c3n2)c1 ... 5.80

Let us examine a further case.
# pEC50 lookup, item `CN(C)CCNc1cc(F)cc(-c2ccnc3[nH]c(-c4n[nH]c5ccc(-c6cncc(OCCN7CCCC7)c6)nc45)nc23)c1`
5.20

---

- Tested on: primary human fibroblasts derived from IPF patients (LL29 cells), α-smooth muscle actin (αSMA)
- PROTOCOL_NOTES: Inhibition of the fibrotic process: TGF-β1-treated primary human fibroblasts from IPF patients, αSMA staining
- Format: cell-based
- CONDITION: Fibroblast, 96 h, LL29 fibroblasts from IPF patients, TGF-β1 20 ng/mL, 4 days, inhibition of fibrotic process
- Text: Representative compounds were screened using primary human fibroblasts (derived from IPF patients) treated with TGF-β1 to determine their ability to inhibit the fibrotic process. […]
Catalogue of EC50 readings, one per entry.
Answer format: numeric, nM implied, no suffix.

Fill blank: measured EC50 of the compound c1csc(-c2ccnc3[nH]c(-c4n[nH]c5ccc(-c6ccncc6)nc45)nc23)c1 [Compound 354] is ____.
387

EC50 lookup needed for CN(C)Cc1cncc(-c2ccc3[nH]nc(-c4nc5c(-c6cccs6)ccnc5[nH]4)c3n2)c1 [Compound 349] , thanks.
1420

Look at this compound and give its reported EC50. FC1(F)CCN(Cc2cncc(-c3ccc4[nH]nc(-c5nc6c(N7CCCCC7)ccnc6[nH]5)c4n3)c2)C1 [Compound 194]
1190

Dear colleague, I am looking for the recorded EC50 of the following compound: Cc1ccncc1-c1ccc2[nH]nc(-c3nc4c(-c5cc(F)cc(CNS(C)(=O)=O)c5)ccnc4[nH]3)c2n1 [Compound 481]
5180

---

- Tested on: primary human fibroblasts derived from IPF patients (LL29 cells), α-smooth muscle actin (αSMA)
- PROTOCOL_NOTES: Inhibition of the fibrotic process: TGF-β1-treated primary human fibroblasts from IPF patients, αSMA staining
- Type: cell-based
- CONDITION: Fibroblast, 96 h, LL29 fibroblasts from IPF patients, TGF-β1 20 ng/mL, 4 days, inhibition of fibrotic process
pEC50 values by entry
Entry type: numeric. Quantity: pEC50, the -log10 of concentration in molar units.

Cc1cn(-c2ccnc3[nH]c(-c4n[nH]c5ccc(-c6cncc(N7CC(N)C7)n6)nc45)nc23)cn1 [Compound 622] ... 5.32
Cn1cc(-c2ccc3[nH]nc(-c4nc5c(N6CCCCC6)ccnc5[nH]4)c3n2)c(CO)n1 [Compound 1134] ... 6.83
NC1CN(c2cncc(-c3ccc4[nH]nc(-c5nc6c(-c7ccc(Cl)s7)ccnc6[nH]5)c4n3)n2)C1 [Compound 1068] ... 6.03

Proceed to the following item.
# query: pEC50 of entry CN(C)c1cncc(-c2ccc3[nH]nc(-c4nc5c(-c6cccs6)ccnc5[nH]4)c3n2)c1 [Compound 343]
5.93

These entries and their values trace back to patent US10329309B2.
